Items are presented alongside their recorded phenotypically active.
Tested on: WPMY1-ACTB-RAB5A
Assay: phenotypically active (imaging signature differs from DMSO and reproducible) at any of 0.3-9 uM (binary (1 = active, 0 = inactive)); higher = active
Settings: treatment time: 24 h

Example entries begin here.
CCc1cccc2c3c([nH]c12)C(CC)(CC(=O)O)OCC3 (stereo unspecified) :: 0 (inactive)
C[C@H](Cc1cc2c(c(C(N)=O)c1)N(CCCO)CC2)NCCOc1ccccc1OCC(F)(F)F :: 0 (inactive)
CC(C)NCC(O)COc1ccc(CC(N)=O)cc1 (stereo unspecified) :: 0 (inactive)

In: Identify the measured phenotypically active of COC(=O)C1=C(C)NC(C)=C(C(=O)OC)C1c1ccccc1[N+](=O)[O-] for WPMY1-ACTB-RAB5A.
Out: 0 (inactive)

In: Item: CC(=O)NCC(=O)N1[C@@H]2CC[C@H]1c1ccc(Nc3ncc(C(F)(F)F)c(NC4CCC4)n3)cc12
Out: 1 (active)

In: Item: c1ccc(-c2n[nH]cc2-c2ccnc3ccccc23)nc1
Out: 1 (active)

In: Item: O=P(O)(O)C(O)(Cc1cccnc1)P(=O)(O)O [risedronate]
Out: 0 (inactive)

---

System: WPMY1-TUBA1B-RELA
Test: phenotypically active (imaging signature differs from DMSO and reproducible) at any of 0.3-9 uM (binary (1 = active, 0 = inactive)); higher = active
Settings: treatment time: 24 h
Measured property: phenotypically active
Output spec: single numeric token, no unit.

Example entries begin here.
CNc1nc(-c2ccc3c(N)n[nH]c3c2)cc(N2C[C@@H](C(=O)NC3CCCCC3)CC[C@H]2C)n1 :: 1
O=c1cc(-c2cccc3c2Sc2ccccc2S3)oc(N2CCOCC2)c1 :: 0
O=C1NC(=O)C(c2ccccc2)(c2ccccc2)N1 :: 0
O=C(Nc1ccc(-c2ccnc(Nc3ccc(N4CCOCC4)cc3)n2)cc1)[C@@H]1CCCN1 :: 1
CNC(=C[N+](=O)[O-])NCCSCc1ccc(CN(C)C)o1 :: 0
CN(C)CC/C=C1\c2ccccc2COc2ccc(CC(=O)O)cc21 :: 0

In: Identify the measured phenotypically active of COc1ccccc1C(=O)Nc1cc2c(cc1N1CCCC1)n(C)c(=O)n2C for WPMY1-TUBA1B-RELA.
Out: 0

---

Test system: A549-TUBA1B-RELA
Test: phenotypically active (imaging signature differs from DMSO and reproducible) at any of 0.3-9 uM (binary (1 = active, 0 = inactive)); higher = active
Conditions: treatment time: 24 h
Reply using exactly one outcome from 1.0 = active, 0.0 = inactive

CS(=O)(=O)c1cccc(CNc2nc(Nc3ccc4c(c3)CCC(=O)N4)ncc2C(F)(F)F)c1 :: 1.0
O=C1C=C(O)C(=O)c2ccccc21 [2-Hydroxy-[1,4]naphthoquinone] :: 0.0

In: I would be grateful if you could indicate the recorded call for C[C@@H]1O[C@@H](O[C@H]2[C@H](Oc3cc(O)c4c(c3)O[C@H](c3ccc(O)cc3)CC4=O)O[C@H](CO)[C@@H](O)[C@@H]2O)[C@H](O)[C@H](O)[C@H]1O [Naringin hydrate] .
Out: 0.0

---

Tested on: HepG2-GM130-SQSTM1
Test: phenotypically active (imaging signature differs from DMSO and reproducible) at any of 0.3-9 uM (binary (1 = active, 0 = inactive)); higher = active
Conditions: treatment time: 24 h
Reply using exactly one outcome from active, inactive

CCc1ccc(/C=C/C(=O)Nc2ccc(C(C)=O)cc2)o1 :: inactive

In: I would be grateful if you could indicate the recorded call for O=C(O)[C@H](Cc1c[nH]c2ccccc12)N1C(=O)c2ccccc2C1=O .
Out: inactive

In: Item: CCN(CC)CCOC(=O)C1(C2CCCCC2)CCCCC1
Out: inactive

In: Item: O=[N+]([O-])c1cc([N+](=O)[O-])c(/C=C/c2ccc(Cl)c(Cl)c2)cc1/C=C/c1ccc(Cl)c(Cl)c1
Out: inactive

In: Item: COc1cc([C@@H]2c3cc4c(cc3[C@@H](O[C@@H]3O[C@@H]5CO[C@@H](C)O[C@H]5[C@H](O)[C@H]3O)[C@H]3COC(=O)[C@H]23)OCO4)cc(OC)c1O [etoposide]
Out: active

In: Item: C/N=C(\NC#N)NCCSCc1nc[nH]c1C
Out: inactive

---

Items are presented alongside their recorded lowest phenotypically active concentration.
System: A549-TP53BP1-CLTA
Test: lowest phenotypically active concentration; higher = less potent
Conditions: treatment time: 24 h
Where a name gives a salt, the structure may show the parent alone.

CC[C@H](CO)Nc1nc(NCc2ccc(-c3ccccn3)cc2)c2ncn(C(C)C)c2n1 :: ≤ 0.3 µM
CC(C)(C)c1nc(-c2cccc(NS(=O)(=O)c3c(F)cccc3F)c2F)c(-c2ccnc(N)n2)s1 :: ≤ 0.3 µM

Here's the next entry for you.
In: I have this molecule here, CCC1(O)CC2CN(CCc3c([nH]c4ccccc34)C(C(=O)OC)(c3cc4c(cc3OC)N(C)C3C(O)(C(=O)OC)C(OC(C)=O)C5(CC)C=CCN6CCC43C65)C2)C1 (stereo not drawn) [Vinblastine sulfate] , and I need its recorded lowest phenotypically active concentration.
Out: ≤ 0.3 µM

---

System: HepG2-ACTB-RAB5A
Test: lowest phenotypically active concentration; higher = less potent
Conditions: treatment time: 24 h
Measured property: lowest phenotypically active concentration

Example entries begin here.
CNC(=O)Nc1ccc(-c2nc(N3CC4CCC(C3)O4)c3cnn(C4CCC5(CC4)OCCO5)c3n2)cc1 :: ≤ 0.3 µM
N#Cc1c(NC(=O)c2cccc3ccccc23)sc2c1CCCC2 :: ≤ 0.3 µM

In: Identify the measured lowest phenotypically active concentration of CC(C)(C)c1cnc(CSc2cnc(NC(=O)C3CCNCC3)s2)o1 for HepG2-ACTB-RAB5A.
Out: ≤ 0.3 µM

---

Items are presented alongside their recorded phenotypically active.
Tested on: HepG2-TP53BP1-CLTA
Assay: phenotypically active (imaging signature differs from DMSO and reproducible) at any of 0.3-9 uM (binary (1 = active, 0 = inactive)); higher = active
Conditions: treatment time: 24 h
Output spec: single numeric token, no unit.

C[C@]12CC[C@@H]3c4ccc(OS(=O)(=O)O)cc4CC[C@H]3[C@@H]1CCC2=O [estrone sulfuric acid] :: 0
CCCCOc1cc(C(=O)OCCN(CC)CC)ccc1N [oxybuprocaine] :: 0
CCCSc1nc2c(c(=O)n1-c1ccccc1)SCC2 :: 0
CC1(C)O[C@@H]2C[C@H]3[C@@H]4C[C@H](F)C5=CC(=O)CC[C@]5(C)[C@H]4[C@@H](O)C[C@]3(C)[C@]2(C(=O)CO)O1 [flurandrenolide] :: 0
Nc1ncn([C@@H]2O[C@H](CO)[C@@H](O)[C@H]2O)c(=O)n1 [5-Azacytidine] :: 1
CCC(C)(C)C(=O)O[C@H]1C[C@@H](C)C=C2C=C[C@H](C)[C@H](CC[C@@H]3C[C@@H](O)CC(=O)O3)[C@H]21 [Simvastatin] :: 1
C=C[C@H]1[C@H](O[C@@H]2O[C@H](CO)[C@@H](O)[C@H](O)[C@H]2O)OC=C2C(=O)NCC[C@H]21 [Bakankosine] :: 0
CC(C)(C)c1ccc(S(=O)(=O)/C=C/C#N)cc1 :: 0
COc1ccc(S(=O)(=O)ON=C2C=C(C)C(=O)C(C)=C2)cc1 :: 0
Nc1ncnc2c1c(COc1cccc(Cl)c1)nn2C1CCOCC1 :: 1

Here's the next entry for you.
In: Identify the measured phenotypically active of CCCCCCOc1cc2c(cc1N(C)c1ncc(C(=O)O)cn1)C(C)(C)CCC2(C)C for HepG2-TP53BP1-CLTA.
Out: 0

---

Test system: HepG2-ACTB-RAB5A
Test: phenotypically active (imaging signature differs from DMSO and reproducible) at any of 0.3-9 uM (binary (1 = active, 0 = inactive)); higher = active
Details: treatment time: 24 h
Where a name gives a salt, the structure may show the parent alone.
Reply using exactly one outcome from active, inactive

These recorded examples may help you get a feel for the data.
CC(COc1ccccc1)N(CCCl)Cc1ccccc1 (configuration not stated) :: inactive
CC(C)C(=O)SCCCCC[C@H](NC(=O)OC(C)(C)C)C(=O)NC12CC3CC(CC(C3)C1)C2 :: inactive
Nc1ncn([C@@H]2O[C@H](CO)[C@@H](O)[C@H]2O)c(=O)n1 :: active
Nc1nc(Cl)nc2c1ncn2[C@@H]1O[C@H](CO)[C@@H](O)[C@@H]1F :: active
COc1cc2nccc(Oc3ccc(NC(=O)NC4CC4)c(Cl)c3)c2cc1C(N)=O :: inactive
CN1CCc2cccc3c2[C@H]1Cc1ccc(O)c(O)c1-3 [r(-)-apomorphine] :: inactive
C=C1C[C@@]23CCC4[C@@](C)(CCC[C@@]4(C)C(=O)O[C@@H]4O[C@H](CO)C(O)[C@H](O)C4O)C2CC[C@@]1(O[C@H]1O[C@H](CO)C(O)[C@H](O)[C@H]1O[C@@H]1O[C@H](CO)[C@@H](O)[C@H](O)[C@H]1O)C3 (some centres not stated) [Stevioside] :: inactive
COc1ccnc(CS(=O)c2nc3cc(OC(F)F)ccc3[nH]2)c1OC (configuration not stated) :: inactive

In: I would be grateful if you could indicate the recorded call for CC(C)n1c(/C=C/[C@@H](O)C[C@@H](O)CC(=O)O)c(-c2ccc(F)cc2)c2ccccc21 .
Out: active

In: Item: CCCCCOC(=O)Nc1nc(=O)n([C@@H]2O[C@H](C)[C@@H](O)[C@H]2O)cc1F
Out: inactive

In: Item: Fc1ccccc1Nc1nc2nonc2nc1Nc1ccccc1F
Out: inactive

In: Item: CCOc1cc([C@@H](CS(C)(=O)=O)N2C(=O)c3cccc(NC(C)=O)c3C2=O)ccc1OC
Out: inactive

In: Item: CC[C@H](C)[C@H](NC(=O)OCc1ccccc1)C(=O)N[C@@H](CCC(=O)OC(C)(C)C)C(=O)N[C@@H](C)C(=O)N[C@H](C=O)CC(C)C
Out: active

In: Item: O=S(=O)(NCCSSCCNS(=O)(=O)c1cc(Cl)ccc1Cl)c1cc(Cl)ccc1Cl
Out: inactive

In: Item: CC(=O)N[C@@H](CC(=O)O)C(=O)N[C@@H](CCC(=O)O)C(=O)O
Out: inactive

In: Item: Cn1cc(-c2[nH]c3cc(NC(=O)[C@H](N)C4CCCCC4)cc4c3c2C=NNC4=O)cn1
Out: active

In: Item: NC12CC3CC(CC(C3)C1)C2
Out: inactive

In: Item: O=C(CCCCCCC(=O)Nc1ccccc1)NO
Out: active

In: Item: CC(CCc1ccc(O)cc1)NCCc1ccc(O)c(O)c1 (configuration not stated) [Dobutamine hydrochloride]
Out: inactive

In: Item: C=C[C@H]1CN2CC[C@H]1C[C@@H]2[C@@H](O)c1ccnc2ccc(OC)cc12 [Quinidine hydrochloride monohydrate]
Out: inactive

In: Item: Cc1cc2sc(NC(=O)Cc3ccccc3)nc2cc1Cl
Out: inactive

In: Item: Cc1ncc([N+](=O)[O-])n1CCOC(=O)NC(Nc1ncccn1)C(Cl)(Cl)Cl (configuration not stated)
Out: inactive

Origin of the recorded values: the supplement of paper PMC7411054
